molecular target: native ERα from rat uterine cytosol (Rattus norvegicus); construct: from tissue; host or cells: uterine cytosol of ovariectomized Sprague-Dawley rats; assay: Radiolabeled E2 competitor binding assay in rat uterine cytosol (RUC)
Sequence (P06211 whole entry): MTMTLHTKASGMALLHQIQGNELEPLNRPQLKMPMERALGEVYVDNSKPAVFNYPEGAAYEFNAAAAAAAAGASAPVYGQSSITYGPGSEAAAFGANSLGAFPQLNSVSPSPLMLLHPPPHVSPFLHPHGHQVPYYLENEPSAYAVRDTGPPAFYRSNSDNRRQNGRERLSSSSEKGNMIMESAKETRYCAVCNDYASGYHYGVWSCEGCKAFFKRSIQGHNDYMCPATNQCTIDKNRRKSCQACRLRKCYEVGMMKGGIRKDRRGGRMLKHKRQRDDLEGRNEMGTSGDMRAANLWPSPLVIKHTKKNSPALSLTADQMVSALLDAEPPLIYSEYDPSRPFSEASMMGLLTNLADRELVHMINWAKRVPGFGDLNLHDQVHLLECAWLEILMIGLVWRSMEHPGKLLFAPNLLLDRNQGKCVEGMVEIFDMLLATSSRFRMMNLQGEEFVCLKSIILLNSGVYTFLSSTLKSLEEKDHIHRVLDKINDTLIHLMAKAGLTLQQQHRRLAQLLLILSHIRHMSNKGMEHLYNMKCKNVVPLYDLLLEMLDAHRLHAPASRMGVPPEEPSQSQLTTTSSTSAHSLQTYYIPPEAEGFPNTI
Outcome measure: IC50

>>> test_result("Cc1ccc(C2=CC(O)(c3ccccc3)N(Cc3ccccc3)C2=O)cc1C (centres unmarked)")
"128 µM"
>>> test_result("O=C1C(c2ccc([N+](=O)[O-])cc2)=CC(O)(c2ccccc2)N1Cc1ccccc1 (centres unmarked)")
"76.6 µM"

----------
system: Ishikawa cells; experiment: Real-time monitoring of cell proliferation and cytotoxicity (YOYO-1); conditions: Homo sapiens, Ishikawa, 120 h, read-out: IC50, cell proliferation (AUC)
# IC50 annotations
Outcome measure: IC50 (µM)

>>> test_result("Cc1ccc(C2=CC(O)(c3ccccc3)N(Cc3ccccc3)C2=O)cc1C (centres unmarked)")
2.1
>>> test_result("O=C1C(c2ccc([N+](=O)[O-])cc2)=CC(O)(c2ccccc2)N1Cc1ccccc1 (centres unmarked)")
3.81
